What TGI was measured for each of the following?
system: MOLT-4 leukemia; assay: NCI tumour cell line growth inhibition, 48 h

As a guide, the following entries are already answered.
Would you mind telling me what TGI value was observed for Cc1c(N=Nc2ccc(Cl)cc2)c(-c2ccccc2)n(C2OC(CO)C(O)C(O)C2O)c(=S)c1C#N (stereo unspecified) ?
33.2 µM

Would you mind telling me what TGI value was observed for CC(=O)c1[nH]c(NCc2ccccc2)c(C(=S)Nc2ccccc2)c1N ?
> 100 µM

For each of the items listed, what is its TGI?
1. COc1c(OC[C@H](O)CN2CCOCC2)ccc2c3n(c(=NC(=O)c4cccnc4C)nc12)CCN3
2. Cc1cc(S(=O)(=O)Nc2n[nH]c(N)n2)c(SCC(=O)O)cc1Cl
3. O=C(O)C(NCc1ccccc1)C(NCc1ccccc1)C(=O)O (stereo unspecified)
4. O=Cc1[nH]c(=O)[nH]c(=O)c1C(=O)O
5. Oc1cccnc1[Se]

1. > 50 µM
2. > 10 µM
3. > 100 µM
4. > 100 µM
5. > 100 µM

====

tested on: HT29 colon; experiment: NCI tumour cell line growth inhibition, 48 h
quantityMeasured: TGI

Would you mind telling me what TGI value was observed for NC(=O)C12CC3CC(CC(F)(C3)C1)C2 ?
> 100 µM

Would you mind telling me what TGI value was observed for CC(=O)OC12C=CC(=O)N1c1ccccc1C(=O)O2 (stereo unspecified) ?
> 100 µM

For each of the items listed, what is its TGI?
1. CC1CCC(C(C)C)C(OC(=O)NCn2cc(-c3ccccc3)nn2)C1 (stereo unspecified)
2. CCOC(=O)C(=[N+]=[N-])[Si](C)(C)C

> 100 µM
> 100 µM

For each of the items listed, what is its TGI?
1. O=C(c1ccccc1)c1cc2ccccc2o1
2. C#C[C@]1(O)CCC2C3CCc4cc(O)ccc4C3CC[C@@]21C (stereo partly specified)

1: > 100 µM; 2: 18.6 µM

====

tested on: HCT-116 colon; assay: NCI tumour cell line growth inhibition, 48 h
What TGI was measured for each of the following?

HCT-116 colon / TGI / CC(C)=CC[C@]12CCN[C@H]1N(S(=O)(=O)c1ccccc1)c1ccccc12 : value?
27.9 µM

HCT-116 colon / TGI / CN(C)C(n1cc2c(c1)-c1ccc(Cl)cc1C(c1ccccc1F)=NC2)n1cc2c(c1)-c1ccc(Cl)cc1C(c1ccccc1F)=NC2 : value?
> 100 µM

HCT-116 colon / TGI / Cc1ccc(-n2c(N)c(C#N)c3[nH]nc(N)c3c2=O)cc1 : value?
> 100 µM

HCT-116 colon / TGI / O=c1ccn([C@H]2CSC[C@@H](CO)C2)c(=O)[nH]1 : value?
> 100 µM

HCT-116 colon / TGI / CCCCNC(=S)Nc1nc(C(=O)NNC(=S)Nc2ccccc2)cs1 : value?
> 100 µM

HCT-116 colon / TGI / C1=CC(N(c2ccccc2)C2C=CCCC2)CCC1 (configuration not stated) : value?
> 100 µM

For each of the items listed, what is its TGI?
1. COc1ccc(-[n+]2nc(S(=O)(=O)O)c(/C=C/c3ccc(N(C)C)cc3)cc2C#N)cc1
2. CCOc1ccc(NC(=O)CC#N)cc1
3. O=C1Nc2ccccc2/C1=N\[O-].O=C1Nc2ccccc2/C1=N\[O-].[Cu+2]
4. CCOC(=O)C(=[N+]=[N-])[Si](C)(C)C
5. COC(=O)/C=C(\C)CC(O)/C=C(\C)CCC=C(C)C (configuration not stated)
6. CCOC(=O)CN1C(=O)c2ccc(NC(=O)C(=O)O)cc2S1(=O)=O
7. Cc1ccnc2[nH]c3ccccc3c(=O)c12
8. O=C1C(c2c(O)[nH]c3ccc(F)cc23)=Nc2ccccc21

> 100 µM
> 100 µM
> 100 µM
> 100 µM
> 100 µM
> 100 µM
> 100 µM
> 100 µM
